test system: SK-OV-3; assay: In vitro cytotoxic activity against human ovarian carcinoma cell line SK-OV-3 after 72 hr of drug exposure determined by the SRB assay; format: functional, cell-based; conditions: SK-OV-3, 72 h
observation_type: pIC50
// pIC50: -log10(molar conc.)

O=C1c2ccc(CN3CCCC3)cc2C(=O)c2nccnc21: 6.60
O=C1c2ccc(CN(CCO)CCO)cc2C(=O)c2nccnc21: 5.92
Cc1ccc2c(c1)C(=O)c1nccnc1C2=O: 5.66

**Query** Observed pIC50 on SK-OV-3 for O=C1c2ccc(CN3CCCCC3)cc2C(=O)c2nccnc21 , please.
**Result** 6.40

**Query** Observed pIC50 on SK-OV-3 for CO[C@@]12[C@H](COC(N)=O)C3=C(C(=O)C(C)=C(N)C3=O)N1C[C@@H]1N[C@@H]12 , please.
**Result** 6.74

**Query** Observed pIC50 on SK-OV-3 for O=C1c2ccc(CBr)cc2C(=O)c2nccnc21 , please.
**Result** 5.80

**Query** Observed pIC50 on SK-OV-3 for O=C1c2ccc(CN3CCOCC3)cc2C(=O)c2nccnc21 , please.
**Result** 5.15

**Query** Observed pIC50 on SK-OV-3 for CN(C)Cc1ccc2c(c1)C(=O)c1nccnc1C2=O , please.
**Result** 6.66

**Query** Observed pIC50 on SK-OV-3 for CN1CCN(Cc2ccc3c(c2)C(=O)c2nccnc2C3=O)CC1 , please.
**Result** 5.00

====

IC50 values by entry
test system: MDA-MB-468; assay: In vitro cytotoxic activity against human breast cancer cell line MD-MB-468 after 72 hr of drug exposure determined by the SRB assay; assay type: functional, cell-based; details: MDA-MB-468, 72 h
Give the number; µM is assumed, so skip it.

O=C1c2ccc(CN3CCCCC3)cc2C(=O)c2nccnc21: 0.2
COc1cccc2c1C(=O)c1c(O)c3c(c(O)c1C2=O)C[C@@](O)(C(=O)CO)C[C@@H]3O[C@H]1C[C@H](N)[C@H](O)[C@H](C)O1: 0.007
O=C1c2ccc(CBr)cc2C(=O)c2nccnc21: 0.3
Cc1ccc2c(c1)C(=O)c1nccnc1C2=O: 1.5

Alright, here's another molecule for you.
**Query** Which IC50 is reported for this molecule? CN1CCN(Cc2ccc3c(c2)C(=O)c2nccnc2C3=O)CC1
**Result** 3
